Where do these numbers come from? They come from ChEMBL document CHEMBL5356983.

Give IC50 for every item shown.
assay: Senolytic activity in non-senescent human WI-38 cells by PI staining based flow cytometry analysis; type: toxicity, cell-based; details: non-senescent WI-38 cells
I only need the number, in µM, no unit after it.

Record request: IC50 value, item COc1cc(/C=C/C(=O)N2OCC=CC2=O)cc(OC)c1OC
48.9

Record request: IC50 value, item COc1cc(/C=C/C(=O)N2CCC=CC2=O)cc(OC)c1OC
20.3

Record request: IC50 value, item COc1ccc(/C=C/C(=O)N2CCC=C(Br)C2=O)cc1
1.1

Record request: IC50 value, item COc1cc(/C=C/C(=O)N2CC(O)C=CC2=O)cc(OC)c1OC (stereo unspecified)
11.3

Record request: IC50 value, item COc1cc(/C=C/C(=O)N2C=CC=CCC2=O)cc(OC)c1OC
26.7
